test system: Mus musculus; assay: Toxicity in ICR mouse xenografted with mouse S180 cells assessed as effect on kidney weight at 8.9 umol/kg; format: organism-based, CCRF S-180; settings: in vivo
Peptide text beside a SMILES is read from it. * marks the point of attachment. OBn = c1ccc(CO*)cc1
parameter: Activity (g)

CC(C)C[C@H](NC(=O)[C@H](Cc1c[nH]c2ccccc12)NC(=O)[C@@H](N)Cc1c[nH]c2ccccc12)C(=O)OCc1ccccc1 (H-Trp-Trp-Leu-OBn) ... 0.16
C[C@@H](O)[C@H](NC(=O)[C@H](Cc1c[nH]c2ccccc12)NC(=O)[C@@H](N)Cc1c[nH]c2ccccc12)C(=O)OCc1ccccc1 (H-Trp-Trp-Thr-OBn) ... 0.15
N[C@@H](Cc1c[nH]c2ccccc12)C(=O)N[C@@H](Cc1c[nH]c2ccccc12)C(=O)NCC(=O)OCc1ccccc1 (H-Trp-Trp-Gly-OBn) ... 0.16
NC(=O)C[C@H](NC(=O)[C@H](Cc1c[nH]c2ccccc12)NC(=O)[C@@H](N)Cc1c[nH]c2ccccc12)C(=O)OCc1ccccc1 (H-Trp-Trp-Asn-OBn) ... 0.16
N[C@@H](Cc1c[nH]c2ccccc12)C(=O)N[C@@H](Cc1c[nH]c2ccccc12)C(=O)N[C@@H](Cc1cnc[nH]1)C(=O)OCc1ccccc1 (H-Trp-Trp-His-OBn) ... 0.16
N[C@@H](Cc1c[nH]c2ccccc12)C(=O)N[C@@H](Cc1c[nH]c2ccccc12)C(=O)N[C@@H](CO)C(=O)OCc1ccccc1 (H-Trp-Trp-Ser-OBn) ... 0.16

###

test system: Mus musculus; experiment: Toxicity in ICR mouse xenografted with mouse S180 cells assessed as effect on liver weight at 8.9 umol/kg; assay type: organism-based, CCRF S-180; conditions: in vivo
Peptide text beside a SMILES is read from it. * marks the point of attachment. OBn = c1ccc(CO*)cc1
parameter: Activity

C[C@H](NC(=O)[C@H](Cc1c[nH]c2ccccc12)NC(=O)[C@@H](N)Cc1c[nH]c2ccccc12)C(=O)OCc1ccccc1 (H-Trp-Trp-Ala-OBn) ... 1.77 g
NC(=O)CC[C@H](NC(=O)[C@H](Cc1c[nH]c2ccccc12)NC(=O)[C@@H](N)Cc1c[nH]c2ccccc12)C(=O)OCc1ccccc1 (H-Trp-Trp-Gln-OBn) ... 1.81 g
CC(C)C[C@H](NC(=O)[C@H](Cc1c[nH]c2ccccc12)NC(=O)[C@@H](N)Cc1c[nH]c2ccccc12)C(=O)OCc1ccccc1 (H-Trp-Trp-Leu-OBn) ... 1.7 g
N[C@@H](Cc1c[nH]c2ccccc12)C(=O)N[C@@H](Cc1c[nH]c2ccccc12)C(=O)N1CCC[C@H]1C(=O)OCc1ccccc1 (H-Trp-Trp-Pro-OBn) ... 1.81 g
CC[C@H](C)[C@H](NC(=O)[C@H](Cc1c[nH]c2ccccc12)NC(=O)[C@@H](N)Cc1c[nH]c2ccccc12)C(=O)OCc1ccccc1 (H-Trp-Trp-Ile-OBn) ... 1.85 g
C[C@@H](O)[C@H](NC(=O)[C@H](Cc1c[nH]c2ccccc12)NC(=O)[C@@H](N)Cc1c[nH]c2ccccc12)C(=O)OCc1ccccc1 (H-Trp-Trp-Thr-OBn) ... 1.81 g
CSCC[C@H](NC(=O)[C@H](Cc1c[nH]c2ccccc12)NC(=O)[C@@H](N)Cc1c[nH]c2ccccc12)C(=O)OCc1ccccc1 (H-Trp-Trp-Met-OBn) ... 1.74 g
N[C@@H](Cc1c[nH]c2ccccc12)C(=O)N[C@@H](Cc1c[nH]c2ccccc12)C(=O)NCC(=O)OCc1ccccc1 (H-Trp-Trp-Gly-OBn) ... 1.8 g
N[C@@H](Cc1c[nH]c2ccccc12)C(=O)N[C@@H](Cc1c[nH]c2ccccc12)C(=O)N[C@@H](Cc1ccc(O)cc1)C(=O)OCc1ccccc1 (H-Trp-Trp-Tyr-OBn) ... 1.78 g
N[C@@H](Cc1c[nH]c2ccccc12)C(=O)N[C@@H](Cc1c[nH]c2ccccc12)C(=O)N[C@@H](Cc1ccccc1)C(=O)OCc1ccccc1 (H-Trp-Trp-Phe-OBn) ... 1.89 g
N[C@@H](Cc1c[nH]c2ccccc12)C(=O)N[C@@H](Cc1c[nH]c2ccccc12)C(=O)N[C@@H](Cc1cnc[nH]1)C(=O)OCc1ccccc1 (H-Trp-Trp-His-OBn) ... 1.78 g
N[C@@H](Cc1c[nH]c2ccccc12)C(=O)N[C@@H](Cc1c[nH]c2ccccc12)C(=O)N[C@@H](CO)C(=O)OCc1ccccc1 (H-Trp-Trp-Ser-OBn) ... 1.73 g

###

# reported inhibition in vivo at 8.9 µmol/kg; entries follow
test system: CCRF S-180; assay: Antitumor activity against mouse S180 cells xenografted in ICR mouse assessed as tumor growth inhibition at 8.9 umol/kg, ip administered 1 day after tumor inoculation qd for 7 days; type: functional; conditions: CCRF S-180, ip, read-out: GI
Peptide text beside a SMILES is read from it. * marks the point of attachment. OBn = c1ccc(CO*)cc1
parameter: inhibition in vivo at 8.9 µmol/kg (%)

N[C@@H](Cc1c[nH]c2ccccc12)C(=O)N[C@@H](Cc1c[nH]c2ccccc12)C(=O)N[C@@H](Cc1cnc[nH]1)C(=O)OCc1ccccc1 (H-Trp-Trp-His-OBn) ... 30.7
N[C@@H](Cc1c[nH]c2ccccc12)C(=O)N[C@@H](Cc1c[nH]c2ccccc12)C(=O)N[C@@H](CCC(=O)O)C(=O)OCc1ccccc1 (H-Trp-Trp-Glu-OBn) ... 55.3
CC(C)C[C@H](NC(=O)[C@H](Cc1c[nH]c2ccccc12)NC(=O)[C@@H](N)Cc1c[nH]c2ccccc12)C(=O)OCc1ccccc1 (H-Trp-Trp-Leu-OBn) ... 3.29
CC[C@H](C)[C@H](NC(=O)[C@H](Cc1c[nH]c2ccccc12)NC(=O)[C@@H](N)Cc1c[nH]c2ccccc12)C(=O)OCc1ccccc1 (H-Trp-Trp-Ile-OBn) ... 51.5
NC(=O)CC[C@H](NC(=O)[C@H](Cc1c[nH]c2ccccc12)NC(=O)[C@@H](N)Cc1c[nH]c2ccccc12)C(=O)OCc1ccccc1 (H-Trp-Trp-Gln-OBn) ... 72
N[C@@H](Cc1c[nH]c2ccccc12)C(=O)N[C@@H](Cc1c[nH]c2ccccc12)C(=O)NCC(=O)OCc1ccccc1 (H-Trp-Trp-Gly-OBn) ... 56.6
N[C@@H](Cc1c[nH]c2ccccc12)C(=O)N[C@@H](Cc1c[nH]c2ccccc12)C(=O)N1CCC[C@H]1C(=O)OCc1ccccc1 (H-Trp-Trp-Pro-OBn) ... 58

###

tested on: H22; test: Antiproliferative activity against mouse H22 cells after 48 hrs by MTT assay; type: functional, cell-based; details: H22, 48 h
Peptide text beside a SMILES is read from it. * marks the point of attachment. OBn = c1ccc(CO*)cc1
Quick reference for IC50 among some molecules
parameter: IC50 (µM)

C[C@@H](O)[C@H](NC(=O)[C@H](Cc1c[nH]c2ccccc12)NC(=O)[C@@H](N)Cc1c[nH]c2ccccc12)C(=O)OCc1ccccc1 (H-Trp-Trp-Thr-OBn) ... 14
N[C@@H](Cc1c[nH]c2ccccc12)C(=O)N[C@@H](Cc1c[nH]c2ccccc12)C(=O)NCC(=O)OCc1ccccc1 (H-Trp-Trp-Gly-OBn) ... 22.4
C[C@H](NC(=O)[C@H](Cc1c[nH]c2ccccc12)NC(=O)[C@@H](N)Cc1c[nH]c2ccccc12)C(=O)OCc1ccccc1 (H-Trp-Trp-Ala-OBn) ... 20.8
N[C@@H](Cc1c[nH]c2ccccc12)C(=O)N[C@@H](Cc1c[nH]c2ccccc12)C(=O)N[C@@H](Cc1cnc[nH]1)C(=O)OCc1ccccc1 (H-Trp-Trp-His-OBn) ... 27
CC(C)[C@H](NC(=O)[C@H](Cc1c[nH]c2ccccc12)NC(=O)[C@@H](N)Cc1c[nH]c2ccccc12)C(=O)OCc1ccccc1 (H-Trp-Trp-Val-OBn) ... 9.97
NC(=O)C[C@H](NC(=O)[C@H](Cc1c[nH]c2ccccc12)NC(=O)[C@@H](N)Cc1c[nH]c2ccccc12)C(=O)OCc1ccccc1 (H-Trp-Trp-Asn-OBn) ... 18.7

###

system: Mus musculus; assay: Toxicity in ICR mouse xenografted with mouse S180 cells assessed as increase in body weight at 8.9 umol/kg; type: organism-based, CCRF S-180; conditions: in vivo
Peptide text beside a SMILES is read from it. * marks the point of attachment. OBn = c1ccc(CO*)cc1
parameter: Activity (g)

C[C@@H](O)[C@H](NC(=O)[C@H](Cc1c[nH]c2ccccc12)NC(=O)[C@@H](N)Cc1c[nH]c2ccccc12)C(=O)OCc1ccccc1 (H-Trp-Trp-Thr-OBn) ... 9.99
N[C@@H](Cc1c[nH]c2ccccc12)C(=O)N[C@@H](Cc1c[nH]c2ccccc12)C(=O)N[C@@H](Cc1ccc(O)cc1)C(=O)OCc1ccccc1 (H-Trp-Trp-Tyr-OBn) ... 9.76
CC(C)[C@H](NC(=O)[C@H](Cc1c[nH]c2ccccc12)NC(=O)[C@@H](N)Cc1c[nH]c2ccccc12)C(=O)OCc1ccccc1 (H-Trp-Trp-Val-OBn) ... 9.97
